The reported measurements were obtained from patent US20160297889A1.

System: T1, CAPRIN-1 protein expressed on the membrane surface of human cancer cells (human, UniProt Q14444 2-709)
T1 sequence (looked up): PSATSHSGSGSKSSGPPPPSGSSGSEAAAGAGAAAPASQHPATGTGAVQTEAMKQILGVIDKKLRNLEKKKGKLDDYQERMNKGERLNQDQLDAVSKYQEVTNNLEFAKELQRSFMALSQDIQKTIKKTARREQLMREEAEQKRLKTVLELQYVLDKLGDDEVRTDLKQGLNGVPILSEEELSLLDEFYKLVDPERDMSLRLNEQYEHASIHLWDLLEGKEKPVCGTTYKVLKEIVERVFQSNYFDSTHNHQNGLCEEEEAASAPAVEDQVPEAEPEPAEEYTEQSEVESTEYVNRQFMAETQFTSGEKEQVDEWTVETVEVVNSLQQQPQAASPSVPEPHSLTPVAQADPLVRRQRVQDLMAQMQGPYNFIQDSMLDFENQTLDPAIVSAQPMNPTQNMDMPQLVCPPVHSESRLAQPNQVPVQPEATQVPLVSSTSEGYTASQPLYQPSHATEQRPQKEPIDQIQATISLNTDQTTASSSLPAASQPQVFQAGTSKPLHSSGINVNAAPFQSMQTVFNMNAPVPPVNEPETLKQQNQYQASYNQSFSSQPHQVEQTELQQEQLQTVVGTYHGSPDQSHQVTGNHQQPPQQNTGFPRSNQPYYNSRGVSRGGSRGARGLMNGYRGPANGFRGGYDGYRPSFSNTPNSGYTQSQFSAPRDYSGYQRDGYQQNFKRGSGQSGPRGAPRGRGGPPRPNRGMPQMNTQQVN
Test Summary: cell-based or functional assay
Endpoint: ADCC cytotoxic activity (51Cr release) on FaDu

• humanized antibody #3 (antibody, V domains shown) VH: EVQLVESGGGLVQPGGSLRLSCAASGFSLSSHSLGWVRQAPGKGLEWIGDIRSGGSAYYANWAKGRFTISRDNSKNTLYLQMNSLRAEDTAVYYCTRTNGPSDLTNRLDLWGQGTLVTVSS VL: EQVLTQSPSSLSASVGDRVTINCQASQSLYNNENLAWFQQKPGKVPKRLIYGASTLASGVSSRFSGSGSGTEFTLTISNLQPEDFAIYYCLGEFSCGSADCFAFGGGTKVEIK = ≥ 40%

Kindly consider the entry below.
Noted for humanized antibody #7 (antibody, V domains shown) VH: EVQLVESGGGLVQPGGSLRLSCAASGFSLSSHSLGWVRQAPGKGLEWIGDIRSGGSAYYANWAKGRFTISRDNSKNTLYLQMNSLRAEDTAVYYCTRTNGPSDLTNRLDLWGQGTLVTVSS VL: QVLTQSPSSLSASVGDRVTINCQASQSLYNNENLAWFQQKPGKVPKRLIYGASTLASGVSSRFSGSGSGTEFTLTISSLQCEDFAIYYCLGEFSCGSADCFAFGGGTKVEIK : its ADCC cytotoxic activity (51Cr release) on FaDu reads ≥ 50%
